- Tested on: LOX IMVI
- Test Details: Cytotoxicity against human LOXIMVI cells assessed as growth inhibition at 10 uM after 48 hrs by coulter counter analysis
- Format: functional
- Experimental Setup: read-out: GI
The following molecules are shown together with reported inhibition of growth at 10 µM values.
Reported Property: inhibition of growth at 10 µM (%)

Smiles Structure: O=C(CSc1nc2ccccc2c(=O)n1CCc1ccccc1)NCc1ccccc1
Tested System: LOX IMVI
Qualifier Sign: =
Reported Measurement: 17
--
Smiles Structure: O=C(CSc1nc2ccccc2c(=O)n1CCc1ccccc1)Oc1ccccc1
Tested System: LOX IMVI
Qualifier Sign: =
Reported Measurement: 16
--
Smiles Structure: CC(=O)c1ccc(NC(=O)CSc2nc3ccccc3c(=O)n2CCc2ccccc2)cc1
Tested System: LOX IMVI
Qualifier Sign: =
Reported Measurement: 25
--
Smiles Structure: CCOC(=O)c1ccc(NC(=O)CSc2nc3ccccc3c(=O)n2CCc2ccccc2)cc1
Tested System: LOX IMVI
Qualifier Sign: =
Reported Measurement: 22
--
Smiles Structure: COc1cc(NC(=O)CCSc2nc3ccccc3c(=O)n2CCc2ccccc2)cc(OC)c1OC
Tested System: LOX IMVI
Qualifier Sign: =
Reported Measurement: 54
--
Smiles Structure: O=C(CSc1nc2ccccc2c(=O)n1CCc1ccccc1)Nc1ccccc1
Tested System: LOX IMVI
Qualifier Sign: =
Reported Measurement: 11
--
Smiles Structure: COc1ccc(NC(=O)CSc2nc3ccccc3c(=O)n2CCc2ccccc2)cc1
Tested System: LOX IMVI
Qualifier Sign: <
Reported Measurement: 10
--
Smiles Structure: O=C(CSc1nc2ccccc2c(=O)n1CCc1ccccc1)Nc1ccc(F)cc1
Tested System: LOX IMVI
Qualifier Sign: =
Reported Measurement: 18
--
Smiles Structure: COc1cc(NC(=O)CSc2nc3ccccc3c(=O)n2CCc2ccccc2)cc(OC)c1OC
Tested System: LOX IMVI
Qualifier Sign: =
Reported Measurement: 70
--
Smiles Structure: O=C(CSc1nc2ccccc2c(=O)n1CCc1ccccc1)Oc1ccc(Cl)cc1
Tested System: LOX IMVI
Qualifier Sign: =
Reported Measurement: 14

----------
This section presents compounds with their documented inhibition of growth at 10 µM values.
- System: SK-MEL-5
- Test Details: Cytotoxicity against human SK-MEL-5 cells assessed as growth inhibition at 10 uM after 48 hrs by coulter counter analysis
- Assay type: functional
- Experimental Setup: SK-MEL-5, 48 h, read-out: GI
Reported Property: inhibition of growth at 10 µM

Smiles Structure: CC(=O)c1ccc(NC(=O)CSc2nc3ccccc3c(=O)n2CCc2ccccc2)cc1
Reported Measurement: 25%

Smiles Structure: NC(=O)CSc1nc2ccccc2c(=O)n1CCc1ccccc1
Reported Measurement: < 10%

Smiles Structure: Cc1ccc(NC(=O)CSc2nc3ccccc3c(=O)n2CCc2ccccc2)cc1
Reported Measurement: 22%

Smiles Structure: O=C(CSc1nc2ccccc2c(=O)n1CCc1ccccc1)Nc1cc(Cl)ccc1C(=O)O
Reported Measurement: < 10%

Smiles Structure: COc1ccc(NC(=O)CSc2nc3ccccc3c(=O)n2CCc2ccccc2)cc1
Reported Measurement: 10%

Smiles Structure: O=C(CSc1nc2ccccc2c(=O)n1CCc1ccccc1)Nc1ccccc1C(=O)O
Reported Measurement: 35%

Smiles Structure: CCOc1ccc(NC(=O)CSc2nc3ccccc3c(=O)n2CCc2ccccc2)cc1
Reported Measurement: < 10%

Smiles Structure: O=C(CSc1nc2ccccc2c(=O)n1CCc1ccccc1)Oc1ccccc1
Reported Measurement: < 10%

Smiles Structure: COc1cc(OC(=O)CSc2nc3ccccc3c(=O)n2CCc2ccccc2)cc(OC)c1OC
Reported Measurement: < 10%

Smiles Structure: O=C(CSc1nc2ccccc2c(=O)n1CCc1ccccc1)NCc1ccccc1
Reported Measurement: 22%

Smiles Structure: COc1cc(NC(=O)CSc2nc3ccccc3c(=O)n2CCc2ccccc2)cc(OC)c1OC
Reported Measurement: > 100%

Smiles Structure: O=C(CSc1nc2ccccc2c(=O)n1CCc1ccccc1)Nc1ccc(Cl)cc1
Reported Measurement: 22%
